Taken from patent US20250002470A1.

PROTOCOL_NOTES: In vivo pharmacokinetic evaluation in mice (IV and PO)
RUN_CONDITIONS: mouse, plasma; CD-1 mice, PO, 20 mg/kg
MEASURE_NAME: half-life (h)

As a guide, the following entries are already answered.
{"SAMPLE_SMILES": "Cc1nc(N[C@@H]2CCCN(CCO)C2)nnc1-c1ccc(C(F)(F)F)cc1O", "UNIT_INFO": "h", "half-life": 3.62}
{"SAMPLE_SMILES": "Oc1cc(C(F)(F)F)ccc1-c1nnc(N[C@@H]2CCCC[C@H]2O)c2cc(F)ccc12", "UNIT_INFO": "h", "half-life": 5.67}
{"SAMPLE_SMILES": "Cc1nc(N[C@@H]2CCCC[C@H]2O)nnc1-c1ccc(C(F)(F)F)cc1O", "UNIT_INFO": "h", "half-life": 3.6}
{"SAMPLE_SMILES": "Cc1nc(N[C@@H]2CCCN([C@@H](C)CO)C2)nnc1-c1ccc(C(F)(F)F)cc1O", "UNIT_INFO": "h", "half-life": 2.76}

P. Cc1nc(N[C@@H]2CCCN([C@H](C)CO)C2)nnc1-c1ccc(C(F)(F)F)cc1O
Q. Cc1nc(N[C@@H]2CCCN(C(C)(C)CO)C2)nnc1-c1ccc(C(F)(F)F)cc1O
**Query** # return whichever of P and Q has the smaller half-life Lab note: record the label of whichever item you select.
**Result** Q
(Q: 2.53 h, P: 3.68 h)

----------
TARGET_ENTITY: NLRP3 (Homo sapiens)
Construct: endogenous in cells
Sequence (Q96P20 whole entry): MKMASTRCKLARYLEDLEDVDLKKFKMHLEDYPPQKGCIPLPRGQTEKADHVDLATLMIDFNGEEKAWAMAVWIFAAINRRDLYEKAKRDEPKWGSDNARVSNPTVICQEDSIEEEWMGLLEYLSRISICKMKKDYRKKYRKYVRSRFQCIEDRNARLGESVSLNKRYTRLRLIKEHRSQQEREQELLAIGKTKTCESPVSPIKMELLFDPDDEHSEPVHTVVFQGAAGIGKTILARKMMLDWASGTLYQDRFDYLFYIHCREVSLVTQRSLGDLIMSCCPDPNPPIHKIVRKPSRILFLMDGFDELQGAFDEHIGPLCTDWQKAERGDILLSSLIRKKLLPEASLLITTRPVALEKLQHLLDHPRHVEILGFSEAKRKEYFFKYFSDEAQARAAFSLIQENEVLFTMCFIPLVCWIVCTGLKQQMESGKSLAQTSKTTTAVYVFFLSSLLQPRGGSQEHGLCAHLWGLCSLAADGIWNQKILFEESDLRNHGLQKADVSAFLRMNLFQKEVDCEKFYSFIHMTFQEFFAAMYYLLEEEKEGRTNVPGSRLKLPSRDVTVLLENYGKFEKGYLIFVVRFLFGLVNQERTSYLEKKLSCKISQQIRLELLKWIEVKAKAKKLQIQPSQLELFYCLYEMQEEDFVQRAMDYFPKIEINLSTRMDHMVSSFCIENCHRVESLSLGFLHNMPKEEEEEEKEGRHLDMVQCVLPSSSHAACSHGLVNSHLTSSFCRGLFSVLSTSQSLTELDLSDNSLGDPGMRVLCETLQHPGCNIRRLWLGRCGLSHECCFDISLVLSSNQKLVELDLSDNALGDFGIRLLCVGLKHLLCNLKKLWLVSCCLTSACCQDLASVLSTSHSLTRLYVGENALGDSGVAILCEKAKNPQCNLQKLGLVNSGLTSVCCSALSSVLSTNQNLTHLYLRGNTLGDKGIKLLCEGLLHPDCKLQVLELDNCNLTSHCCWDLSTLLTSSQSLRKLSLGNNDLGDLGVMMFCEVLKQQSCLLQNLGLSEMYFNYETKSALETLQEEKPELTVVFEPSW
PROTOCOL_NOTES: IL-1β (interleukin-1β) secretion in IFN-γ-differentiated, LPS/ATP-stimulated THP-1 cells (half inhibition rate of NLRP3)
RUN_CONDITIONS: IFN-γ 25 ng/mL, LPS 50 ng/mL, ATP 5 mM
MEASURE_NAME: IC50 (nM)

As a guide, the following entries are already answered.
{"SAMPLE_SMILES": "Cc1cc(C(F)(F)F)cc(O)c1-c1cnc(N[C@@H]2CCCN(CCO)C2)nn1", "IC50 (nM)": 9.1}
{"SAMPLE_SMILES": "Cc1cc(Cl)cc(O)c1-c1nnc(N[C@@H]2CCCN(C)C2)c2ncccc12", "IC50 (nM)": 9.9}
{"SAMPLE_SMILES": "Cc1nc(N[C@@H]2CCCN(C)C2)nnc1-c1ncc(C(F)(F)F)cc1O", "IC50 (nM)": 67}
{"SAMPLE_SMILES": "C[C@]1(O)C[C@@H](Nc2nnc(-c3ccc(C(F)(F)F)cc3O)c3ccc(F)cc23)C1", "IC50 (nM)": 1.9}
{"SAMPLE_SMILES": "Cc1nc(N[C@@H]2CCCN(CCO)C2)nnc1-c1ccc(Cl)cc1O", "IC50 (nM)": 10.4}

I. CN1CCC[C@@H](Nc2nnc(-c3ccc(Cl)cc3O)c3ccccc23)C1
II. Cc1nc(N[C@H]2C[C@@](C)(O)C2)nnc1-c1ccc(C(F)(F)F)cc1O
III. Cc1cc(C)c(-c2cnc(N[C@@H]3CCCN(CC(=O)O)C3)nn2)c(O)c1
**Query** List the 3 entries from lowest IC50 to highest IC50 value. Use the labels to give the ranking in the order requested.
**Result** I, II, III
(I: 1.1 nM, II: 27.3 nM, III: 53.5 nM)
